All values here come from the supplement of paper PMC7877785.

assay: self-splicing fitness, log relative to wild type (ln ratio); higher = more splicing; Tetrahymena group I intron in knt gene, E. coli kanamycin selection, DiMSum; sequences stand for … in CUCUCU…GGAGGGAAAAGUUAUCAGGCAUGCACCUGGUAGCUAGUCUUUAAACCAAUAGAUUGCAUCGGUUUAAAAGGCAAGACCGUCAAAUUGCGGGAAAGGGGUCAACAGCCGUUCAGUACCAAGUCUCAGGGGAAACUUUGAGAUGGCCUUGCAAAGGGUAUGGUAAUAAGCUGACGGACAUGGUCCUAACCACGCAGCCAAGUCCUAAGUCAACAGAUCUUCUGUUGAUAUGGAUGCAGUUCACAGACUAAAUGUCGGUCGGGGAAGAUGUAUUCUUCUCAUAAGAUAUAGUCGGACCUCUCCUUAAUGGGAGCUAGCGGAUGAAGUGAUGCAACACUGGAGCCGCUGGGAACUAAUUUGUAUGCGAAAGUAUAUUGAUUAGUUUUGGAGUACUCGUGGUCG; conditions: 30 °C;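 also: selection with 25 µg/mL kanamycin versus none on LB agar overnight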
Entries and their measured self-splicing fitness (ln) follow.
Parameter Measured: self-splicing fitness (ln)

[[record]]
biosequence = "AUUUAGCAAUAUUACGUGAC"
recorded_value = -2.58

[[record]]
biosequence = "GACAAGCAAUAUUACGAACU"
recorded_value = -0.214

[[record]]
biosequence = "ACCAAGCAAUAUUACGGAUA"
recorded_value = -2.56

[[record]]
biosequence = "GGUCAGCAAUAUUACGGGUU"
recorded_value = -1.25

[[record]]
biosequence = "ACUAAGCAAUAUUACGAACC"
recorded_value = -0.514

[[record]]
biosequence = "GGGCAGCAAUAUUACGCCGG"
recorded_value = -1.51

[[record]]
biosequence = "AAAAAGCAAUAUUACGGGGG"
recorded_value = -3.27

[[record]]
biosequence = "UAUCAGCAAUAUUACGCGGA"
recorded_value = -0.964

[[record]]
biosequence = "CACGAGCAAUAUUACGACGU"
recorded_value = -3.25

[[record]]
biosequence = "CAAUAGCAAUAUUACGCGCA"
recorded_value = -2.68

[[record]]
biosequence = "CAUCAGCAAUAUUACGGGGA"
recorded_value = -2.59

[[record]]
biosequence = "ACACAGCAAUAUUACGUUCG"
recorded_value = -0.803

[[record]]
biosequence = "GAGCAGCAAUAUUACGUAGG"
recorded_value = -2.83

[[record]]
biosequence = "ACCAAGCAAUAUUACGAAUU"
recorded_value = -3.46

[[record]]
biosequence = "CGGCAGCAAUAUUACGGGAA"
recorded_value = -2.49

[[record]]
biosequence = "AAAGAGCAAUAUUACGAGAG"
recorded_value = -3.36


====

assay: self-splicing fitness, log relative to wild type (ln ratio); higher = more splicing; Tetrahymena group I intron in knt gene, E. coli kanamycin selection, DiMSum; sequences stand for … in CUCUCU…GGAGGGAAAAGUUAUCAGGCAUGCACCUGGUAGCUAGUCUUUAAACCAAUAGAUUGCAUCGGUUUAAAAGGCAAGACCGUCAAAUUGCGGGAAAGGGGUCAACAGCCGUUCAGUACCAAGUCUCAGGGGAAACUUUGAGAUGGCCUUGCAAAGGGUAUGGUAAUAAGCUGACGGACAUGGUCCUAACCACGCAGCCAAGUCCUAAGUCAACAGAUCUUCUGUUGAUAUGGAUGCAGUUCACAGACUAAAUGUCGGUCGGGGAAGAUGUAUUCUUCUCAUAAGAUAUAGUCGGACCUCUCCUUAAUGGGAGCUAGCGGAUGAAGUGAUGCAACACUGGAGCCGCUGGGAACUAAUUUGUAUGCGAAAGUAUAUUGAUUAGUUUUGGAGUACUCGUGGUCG; details: 30 °C
Response field class: string, computed from recorded self-splicing fitness (ln) by ranges bottom: < -3; middle: ≥ -3 and < -2; top: ≥ -2

[[record]]
biosequence = "CACAAGCAAUAUUACGGCCC"
label_class = "middle"

[[record]]
biosequence = "UUCAAGCAAUAUUACGCCGG"
label_class = "top"

[[record]]
biosequence = "GAGCAGCAAUAUUACGCACA"
label_class = "top"

[[record]]
biosequence = "CCCAAGCAAUAUUACGCUGC"
label_class = "middle"

[[record]]
biosequence = "AUUAAGCAAUAUUACGUGGC"
label_class = "middle"

[[record]]
biosequence = "GCAAAGCAAUAUUACGUGGU"
label_class = "bottom"

[[record]]
biosequence = "UGAAAGCAAUAUUACGUCUC"
label_class = "bottom"

[[record]]
biosequence = "CGAGAGCAAUAUUACGCGUU"
label_class = "middle"

[[record]]
biosequence = "CCCCAGCAAUAUUACGGCAG"
label_class = "bottom"

[[record]]
biosequence = "CAGGAGCAAUAUUACGUAUG"
label_class = "middle"

[[record]]
biosequence = "CUCAAGCAAUAUUACGUUAG"
label_class = "middle"

[[record]]
biosequence = "CUACAGCAAUAUUACGGUAA"
label_class = "top"

[[record]]
biosequence = "AAUAAGCAAUAUUACGUGCA"
label_class = "top"

[[record]]
biosequence = "CACCAGCAAUAUUACGGUCA"
label_class = "top"

[[record]]
biosequence = "GCAGAGCAAUAUUACGGGGG"
label_class = "bottom"

[[record]]
biosequence = "ACUGAGCAAUAUUACGUAAU"
label_class = "bottom"

[[record]]
biosequence = "UAAGAGCAAUAUUACGUGUU"
label_class = "bottom"

[[record]]
biosequence = "UACAAGCAAUAUUACGCACA"
label_class = "top"

[[record]]
biosequence = "AUUUAGCAAUAUUACGAAGG"
label_class = "bottom"

[[record]]
biosequence = "CUCCAGCAAUAUUACGGCUU"
label_class = "top"

[[record]]
biosequence = "UGAAAGCAAUAUUACGAUAG"
label_class = "top"

[[record]]
biosequence = "UUGAAGCAAUAUUACGAUCU"
label_class = "top"

[[record]]
biosequence = "AUGAAGCAAUAUUACGAAGC"
label_class = "bottom"

[[record]]
biosequence = "AGCUAGCAAUAUUACGCACC"
label_class = "top"

[[record]]
biosequence = "CUAUAGCAAUAUUACGAGGA"
label_class = "bottom"

[[record]]
biosequence = "GUAAAGCAAUAUUACGAGCU"
label_class = "top"

[[record]]
biosequence = "UUGCAGCAAUAUUACGCUGG"
label_class = "bottom"

[[record]]
biosequence = "AAUAAGCAAUAUUACGGUGU"
label_class = "middle"

